The entries below are paired with their reported Enzyme Activity Endpoint Assay: IgG.
Molecular target: pooled human IgG (human IgG1, 2, 3 and 4)
outcome.measure: Enzyme Activity Endpoint Assay: IgG (ng/µL)

# protein, unit.annotation, test.result
measured = [
    ("PRT-415 (protein) MTITSVWTKGVTPPTPEDFRYNNEDVLHAPYVANQGWYDITKTFDGKDNLLCGAATAGNMLHWWFDQNKEEIERYLKKHPEKQKIIFNNQELFDVKAAIDTKDSQTNSKLFNYFLDKAFPNLSARQLGVMPDLVLDMFINGYYLNLGKTQSTDVNRPYQDKDKRGGIFDAVFTRGDQTTLLTARHDLKNKGLNEISDLIKQELTEGKALALSHTYANVRINHVINLWGADFDAEGNLIAIYVTDSDANASIGMKKYFVGVNANGKVAISAKKIEGDNIGAQVLGLFTLSTGQDIWQKLS", "ng/µL", 164),
    ("PRT-408 (protein) MVTSVWTKGVTPPADFTQGEDVFHAPYVANQGWYDITKTFNGKDDLLCGAATAGNMLHWWFDQNKEYIEAYLKKHPEKQKIMFGDQELLDVRKAINTKGSQKNSELFNYFRDKAFPNLSARRLGVFPDLVLDMFINGYYLNVTKTQTTDVNRTYQEKDKRGGIFDAVFTRGDQSKLLTSRHDFKEKGLKEISDLIKQELTEGKALGLSHTYANVRINHVINLWGADFDSDGNLKAIYVTDSDSNASIGMKKYFVGVNSAGKVAISAKEIKEDNIGAQVLGLFTLSTGQDIWNQTN", "ng/µL", 179),
]

Cited source for all entries: patent US20250027068
